# Target under test: Circumsporozoite protein (CSP) (Plasmodium falciparum (isolate 3D7), UniProt Q7K740)
# Sequence (Q7K740 19-374): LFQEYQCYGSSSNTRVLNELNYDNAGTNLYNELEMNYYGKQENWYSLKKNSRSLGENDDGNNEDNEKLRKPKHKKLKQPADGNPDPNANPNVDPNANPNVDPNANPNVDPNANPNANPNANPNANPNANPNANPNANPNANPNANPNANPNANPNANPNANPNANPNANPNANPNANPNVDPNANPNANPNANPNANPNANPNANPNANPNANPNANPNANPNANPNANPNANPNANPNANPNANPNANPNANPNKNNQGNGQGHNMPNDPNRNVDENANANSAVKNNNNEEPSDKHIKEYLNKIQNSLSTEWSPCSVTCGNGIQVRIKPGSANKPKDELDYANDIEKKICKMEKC
# Assay: AVEXIS screen signal:noise (double-corrected)
Please respond with reported binding score for every item in the list.

The binder listed as ADP356 (protein, bait human Fc-tagged dimer) MAPLPGALGVAAAAALWLLLLLLPRTRADEHEHTYQDKEEVVLWMNTVGPYHNRQETYKYFSLPFCVGSKKSISHYHETLGEALQGVELEFSGLDIKFKDDVMPATYCEIDLDKEKRDAFVYAIKNHYWYQMYIDDLPIWGIVGEADENGEDYYLWTYKKLEIGFNGNRIVDVNLTSEGKVKLVPNTKIQMSYSVKWKKSDVKFEDRFDKYLDPS shows binding score equal to 1

The binder listed as ADP332 (protein, bait human Fc-tagged dimer) MAPPGRRECPFPSWRFPGLLLAAMVLLLYSFSDACEEPPTFEAMELIGKPKPYYEIGERVDYKCKKGYFYIPPLATHTICDRNHTWLPVSDDACYRETCPYIRDPLNGQAVPANGTYEFGYQMHFICNEGYYLIGEEILYCELKGSVAIWSGKPPICEKVLCTPPPKIKNGKHTFSEVEVFEYLDAVTYSCDPAPGPDPFSLIGESTIYCGDNSVWSRAAPECKVVKCRFPVVENGKQISGFGKKFYYKATVMFECDKGFYLDGSDTIVCDSNSTWDPPVPKCLKVLPPSSTKPPALSHSVSTSSTTKSPASSASGPRPTYKPPVSNYPGYPKPEEGILDSLDV shows binding score equal to 0.982

The binder listed as ADP120 (protein, bait human Fc-tagged dimer) MAGVGAGPLRAMGRQALLLLALCATGAQGLYFHIGETEKRCFIEEIPDETMVIGNYRTQMWDKQKEVFLPSTPGLGMHVEVKDPDGKVVLSRQYGSEGRFTFTSHTPGDHQICLHSNSTRMALFAGGKLRVHLDIQVGEHANNYPEIAAKDKLTELQLRARQLLDQVEQIQKEQDYQRYREERFRLTSESTNQR shows binding score equal to 0.957

The binder listed as ADP293 (protein, bait human Fc-tagged dimer) MALLPRLLLLLLLVFPATVLFRGGPRGLLAVAQDLTEDEETVEDSIIEDEDDEAEVEEDEPTDLVEDKEEEDVSGEPEASPSADTTILFVKGEDFPANNIVKFLVGFTNKGTEDFIVESLDASFRYPQDYQFYIQNFTALPLNTVVPPQRQATFEYSFIPAEPMGGRPFGLVINLNYKDLNGNVFQDAVFNQTVTVIEREDGLDGET shows binding score equal to 1.28

The binder listed as ADP361 (protein, bait human Fc-tagged dimer) MAPPQVLAFGLLLAAATATFAAAQEECVCENYKLAVNCFVNNNRQCQCTSVGAQNTVICSKLAAKCLVMKAEMNGSKLGRRAKPEGALQNNDGLYDPDCDESGLFKAKQCNGTSMCWCVNTAGVRRTDKDTEITCSERVRTYWIIIELKHKAREKPYDSKSLRTALQKEITTRYQLDPKFITSILYENNVITIDLVQNSSQKTQNDVDIADVAYYFEKDVKGESLFHSKKMDLTVNGEQLDLDPGQTLIYYVDEKAPEFSMQGLKAG shows binding score equal to 6.45

Hello, the source for this data is paper PMC11098746, in case you need it.
